Some molecules, each annotated with its measured Emax.
- experimental-target: M4 muscarinic receptor (Homo sapiens, UniProt P08173)
- Construct: expressed in transfected cells; host or cells: CHO cells (M4-CHO, under puromycin, zeocin and blasticidin selection)
- Sequence (P08173 whole entry): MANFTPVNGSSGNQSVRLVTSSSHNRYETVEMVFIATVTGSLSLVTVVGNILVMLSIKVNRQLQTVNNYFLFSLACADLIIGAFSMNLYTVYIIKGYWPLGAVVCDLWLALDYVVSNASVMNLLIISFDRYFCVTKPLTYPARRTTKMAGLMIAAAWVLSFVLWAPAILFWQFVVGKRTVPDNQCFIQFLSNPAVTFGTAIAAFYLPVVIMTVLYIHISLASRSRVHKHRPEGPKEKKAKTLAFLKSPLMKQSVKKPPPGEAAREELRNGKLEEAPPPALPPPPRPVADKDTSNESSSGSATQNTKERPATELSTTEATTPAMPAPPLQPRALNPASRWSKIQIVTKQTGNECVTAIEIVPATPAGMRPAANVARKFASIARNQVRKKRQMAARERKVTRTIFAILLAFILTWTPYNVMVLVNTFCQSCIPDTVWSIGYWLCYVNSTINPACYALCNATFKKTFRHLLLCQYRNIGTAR
- assay-procedure: Functional mobilization of intracellular calcium (FLIPR, Fluo-3), M4-CHO cells
- Assay type: cell-based
- measurement-conditions: compound nos. 1-454; 100% efficacy is the maximum response obtained with the Carbachol control; read-out: M4 Efficacy

molecule	Emax
CC(C)(C)COC(=O)N1C2CCC1CC(N1CCC3(CC1)COc1ccc(F)cc13)C2 (stereo not shown) [compound 247]	> 70%
CN(C)C(=O)N1CC2(CCN(C3CCN(c4cccnc4)CC3)CC2)c2cc(F)ccc21 [compound 453]	55 to 70%
CC(=O)N1CC2(CCN(C3CCCCC3)CC2)c2cc(F)ccc21 [compound 387]	< 55%
CCOC(=O)N1C2CCC1CC(N1CCC3(CC1)C[C@H](NC(C)=O)c1ccccc13)C2 (stereo partly shown) [compound 359]	< 55%
Fc1ccc2c(c1)C1(CCN(C3CCCCC3)CC1)CO2 [compound 152]	> 70%
Cc1ccc2c(c1)C1(CCN([C@@H]3C[C@@H]4CC[C@@H]3C4)CC1)CN2 [compound 264]	< 55%

stdin: Request body: readout Emax, system M4 muscarinic receptor (Homo sapiens, UniProt P08173), query CS(=O)(=O)N1CC2(CCN(C3CC4CCC(C3)N4C(=O)OC3CCC3)CC2)c2cc(F)ccc21 (stereo not shown) [compound 122] . Return the value.
stdout: < 55%

stdin: Request: Emax, test system M4 muscarinic receptor (Homo sapiens, UniProt P08173), entry CCOC(=O)N1CCC(N2CCC3(CC2)CN(C(C)=O)c2ccc(-c4ccccc4OC)cc23)CC1 [compound 150]
stdout: > 70%

stdin: Write down the reported Emax of COCCOC(=O)N1C2CCC1CC(N1CCC3(CC1)CN(C(=O)O[C@@H]1CCOC1)c1ccc(F)cc13)C2 (stereo partly shown) [compound 216] , test system: M4 muscarinic receptor (Homo sapiens, UniProt P08173).
stdout: < 55%

stdin: Query for M4 muscarinic receptor (Homo sapiens, UniProt P08173): what Emax does the record show for O=C(C1CC1)N1CC2(CCN(C3CC4CCC(C3)N4C(=O)OC3CCC3)CC2)c2cc(F)ccc21 (stereo not shown) [compound 379] ?
stdout: 55 to 70%

stdin: # query: Emax | item CCCC1CCC(N2CCC3(CC2)CNc2ccccc23)CC1 (stereo not shown) [compound 334] | system: M4 muscarinic receptor (Homo sapiens, UniProt P08173)
stdout: < 55%

stdin: Report Emax for Clc1ccc2c(c1)C1(CCN(C3CC4CCC3C4)CC1)CN2 (stereo not shown) [compound 224] tested on M4 muscarinic receptor (Homo sapiens, UniProt P08173).
stdout: < 55%

stdin: Short answer please: Emax, M4 muscarinic receptor (Homo sapiens, UniProt P08173), entry O=C(O[C@@H]1CCOC1)N1C2CCC1CC(N1CCC3(CC1)COc1ccc(F)cc13)C2 (stereo partly shown) [compound 338]
stdout: < 55%

stdin: // lookup Emax | system=M4 muscarinic receptor (Homo sapiens, UniProt P08173) | key= CCCOC(=O)N1CCC(CN2CCC3(CC2)CN(C(C)=O)c2ccc(F)cc23)CC1 [compound 98]
stdout: < 55%

stdin: Please tell me: Emax of CCOC(=O)N1CCC(CN2CCC3(CC2)CN(C(C)=O)c2ccc(Cl)cc23)CC1 [compound 256] , system M4 muscarinic receptor (Homo sapiens, UniProt P08173)?
stdout: < 55%

stdin: Hello, I am looking for reported Emax with M4 muscarinic receptor (Homo sapiens, UniProt P08173) for COCCOC(=O)N1CC2(CCN(C3CC4CCC(C3)N4C(=O)OCCOC)CC2)c2cc(F)ccc21 (stereo not shown) [compound 117] . Could you help?
stdout: < 55%
